System: HS 578T breast
Test: NCI-60 one-dose screen, 48 h
Details: 10 µM unless noted
Procedure: Growth inhibition of the HS 578T human tumor cell line is measured as a screen for anti-cancer activity. Cells are grown in 96 well plates and exposed to the test compound for 48 hours. Compounds are tested at a single concentration, which is 10^-5 M for most compounds. The reported endpoint is percent growth (GI% or GIPRCNT), where numbers from 0 - 100% represent growth inhibition, and numbers from -100% - 0 represent cell death. For example, a value of 40 represents 60% growth inhibition. […]
The panel holds about 83,000 compounds, 20% with a hit somewhere; the sample as a whole holds those more often. The source made the active and inactive calls. The calls were made as follows: active = growth percent below 10; inactive = the rest.
Bench note: report the call from T = active, F = inactive

Q: I'd appreciate the recorded outcome for CC(C)CCOc1ccc(-c2n[nH]c(C(F)(F)F)c2-c2cncc(C#N)c2)c(O)c1 from this test.
Ans: F

Q: I'd appreciate the recorded outcome for Nc1ccc(-c2ccc(-c3ccccc3N)c3[nH]c4ccccc4c23)cc1 from this test.
Ans: F

Q: I'd appreciate the recorded outcome for O=S(=O)(Nc1ncccn1)c1ccc(NC2Nc3nc4ccccc4nc3S2)cc1 (stereo not given) from this test.
Ans: F

Q: I'd appreciate the recorded outcome for COc1ccc(CCN2C(=O)/C(=C/c3ccc(C4Oc5ccccc5C5CC(c6cccc(OC)c6)=NN54)cc3)SC2=S)cc1 (stereo not given) from this test.
Ans: F

Q: I'd appreciate the recorded outcome for N#CC(C#N)=Cc1c(-c2ccccc2)[nH]c2ccccc12 from this test.
Ans: T

---

test system: U251 CNS; experiment: NCI-60 one-dose screen, 48 h (100 = growth as untreated, 0 = no growth, -100 = all killed); conditions: 10 µM unless noted
This is part of a sample that, as a whole, favours compounds with a hit. Of some 83,000 tested, about 20% had one in any assay.
# growth per record follows
# number only, unit % dropped from output

Q: Give the measured growth for COc1ccc(C)c2sc(N(Cc3cccnc3)C(=O)c3ccc(C#N)cc3)nc12
Ans: 1.87

Q: Give the measured growth for O=C(NC1CCCCC1)C(c1cccs1)N(CCc1ccccc1)C(=O)c1ccco1 (stereo unspecified)
Ans: 96.9

---

system: MALME-3M melanoma; experiment: NCI-60 one-dose screen, 48 h; conditions: 10 µM unless noted
Compounds without any hit were thinned out: in the full panel of roughly 83,000, 20% have a hit. Activity calls are given as the source filed them. Rule for the calls: active = growth percent below 10; inactive = the rest.
Bench note: report the call from TRUE = active, FALSE = inactive

CCOC(=O)C1(C(=O)OCC)N=C(c2ccccc2)C=C1c1ccccc1 :: FALSE
CCC1=C[C@]2(C3CC(=O)N(c4ccccc4)C3=O)CC(C(C)(C)C)C[C@@H]2[C@@H]2C(=O)N(c3ccccc3)C(=O)[C@H]12 (stereo partly specified) :: FALSE
CN1C(=O)N(C)C2C1NN=c1s/c(=C\c3c[nH]c4ccccc34)c(=O)n12 (stereo unspecified) :: FALSE
COc1ccc(C2=Nn3c(NN)nnc3SC2)cc1 :: FALSE
c1ccc2cc3c(Nc4ccc(N5CCOCC5)cc4)ccnc3cc2c1 :: FALSE

Q: I'd appreciate the recorded outcome for Cc1ccc(OCCCCCCNCCO)c(C)c1 from this test.
Ans: TRUE

---

system: NCI-H23 lung; assay: NCI-60 one-dose screen, 48 h (100 = growth as untreated, 0 = no growth, -100 = all killed); details: 10 µM unless noted
About 83,000 compounds went through this panel and 20% of them were active in at least one assay; those are over-represented in the sample as a whole.
quantity-measured: growth (%)
# number only, unit % dropped from output

CC(=O)n1cc(-c2c[nH]c3ccccc23)c(-c2ccc(Cl)cc2)n1 :: 76.2
COc1cc(/C=C2\Oc3cc(OCCCN4CCCC4)ccc3C2=O)cc(OC)c1 :: 69.9
O=c1oc2ccc(I)cc2c(=O)n1-c1ccc(I)cc1F :: 4.94

# evaluate next
Q: Give the measured growth for S=C1CCCC(=S)N1
Ans: 101

---

system: U251 CNS; assay: NCI-60 one-dose screen, 48 h; conditions: 10 µM unless noted
The panel holds about 83,000 compounds, 20% with a hit somewhere; the sample as a whole holds those more often. The source made the active and inactive calls. How the source made its calls: active means growth percent below 10; inactive means the rest.
Bench note: report the call from True (active), False (inactive)

COc1cc(C(=O)O/N=C(\N)Cc2cccc3ccccc23)cc(OC)c1OC :: True
COc1cc(/C=C/C(=O)N2c3ccccc3CC2C)c(OC)c2c1OCO2 (stereo not drawn) :: False
COc1ccc(-c2cn[nH]c2-c2cc(OC)c(OC)c(OC)c2)cc1OCc1ccccc1 :: False

Q: I'd appreciate the recorded outcome for COC(=O)/C(CCC=C(C)C)=C1\[C@@H](OC(C)=O)C[C@@]2(C)[C@H]1C[C@@H](O)[C@H]1[C@@]3(C)CC[C@H](NC(=O)c4cnccn4)[C@@H](C)[C@@H]3CC[C@@]12C from this test.
Ans: False

Q: I'd appreciate the recorded outcome for Cc1c(C(=O)OCCO)cc(-c2ccc(Cl)cc2)n1-c1ccc(Cl)cc1Cl from this test.
Ans: False

Q: I'd appreciate the recorded outcome for Cn1c(C(=O)c2cccc3ccccc23)nc2ccccc21 from this test.
Ans: True

Q: I'd appreciate the recorded outcome for CC1=CCC(OC(=O)C(C)(C)CCC(O)(C(=O)OC2(C(C)C)CCC3(C)OC3C2)C(C)C)(C(C)C)CC1 (stereo not drawn) from this test.
Ans: True

Q: I'd appreciate the recorded outcome for Cn1nc(C(F)(F)F)c(-c2ccc(Cl)c(C(F)(F)F)c2)c1-c1ccc(OCc2ccc(Cl)cc2)cc1O from this test.
Ans: True

---

system: OVCAR-5 ovarian; assay: NCI-60 one-dose screen, 48 h (100 = growth as untreated, 0 = no growth, -100 = all killed); conditions: 10 µM unless noted
About 83,000 compounds went through this panel and 20% of them were active in at least one assay; those are over-represented in the sample as a whole.
# growth per record follows
# number only, unit % dropped from output

Q: Supply growth measured with OVCAR-5 ovarian for NCCOc1ncccc1/C=C1\c2ccccc2-c2ccc(F)cc21 .
Ans: 32.1

---

test system: CAKI-1 renal; assay: NCI-60 one-dose screen, 48 h; settings: 10 µM unless noted
This is part of a sample that, as a whole, favours compounds with a hit. Of some 83,000 tested, about 20% had one in any assay. Calls of active or inactive are those of the source. How the source made its calls: active means growth percent below 10; inactive means the rest.
Bench note: report the call from active, inactive

Worked examples, 3 compounds total:
CCOC(=O)c1cc2c(n1Cc1ccccc1)-c1oncc1CCC2 :: inactive
CCN1C(=O)N(c2ccccc2)C2NN=c3s/c(=C4\C(=O)N(C(C)C)c5ccccc54)c(=O)n3C21 (centres undefined) :: inactive
COC(=O)/C(CCC=C(C)C)=C1\[C@@H](OC(C)=O)C[C@@]2(C)[C@H]1C[C@@H](O)[C@H]1[C@@]3(C)CC[C@H](NCc4ccccc4)[C@@H](C)[C@@H]3CC[C@@]12C :: inactive

Q: I'd appreciate the recorded outcome for CC(=O)c1ccc(Cc2ccc(C(C)=O)s2)s1 from this test.
Ans: inactive

Q: I'd appreciate the recorded outcome for O=c1oc2ccc(I)cc2c(=O)n1-c1ccc(Cl)cc1F from this test.
Ans: active

Q: I'd appreciate the recorded outcome for COc1ccc(-c2nsc3c2NC(=O)CC3c2ccsc2)cc1 (centres undefined) from this test.
Ans: inactive

Q: I'd appreciate the recorded outcome for O=C(Nc1ncc(Cc2cccc(C(F)(F)F)c2)s1)C1COc2ccccc2O1 (centres undefined) from this test.
Ans: inactive

Q: I'd appreciate the recorded outcome for COc1ccc(-c2nc(-c3ccccc3)c(-c3ccccc3)[nH]2)cc1OC1CCCCC1 from this test.
Ans: inactive

Q: I'd appreciate the recorded outcome for O=c1oc2ccc(Cl)cc2c(=O)n1-c1ccc(F)cc1F from this test.
Ans: active

---

system: PC-3 prostate; assay: NCI-60 one-dose screen, 48 h (100 = growth as untreated, 0 = no growth, -100 = all killed); conditions: 10 µM unless noted
This is part of a sample that, as a whole, favours compounds with a hit. Of some 83,000 tested, about 20% had one in any assay.
quantity-measured: growth (%)
# number only, unit % dropped from output

Clc1ccc(-c2nnc(COc3ccc(C4=NNC(c5ccco5)C4)cc3)o2)cc1 (stereo not given) :: 80.8
COc1ccc(-n2c(C(O)c3ccccc3)nn(CN3CCOCC3)c2=S)cc1 (stereo not given) :: 101
COc1cc2nc(NC3CCC3)nc(NC3CCN(C(C)C)CC3)c2cc1OC :: 58.9
Nc1nc2c(ncn2[C@@H]2O[C@H](CS)[C@@H](O)[C@H]2O)c(=O)[nH]1 :: 101
NC1C(N)C(N)C1N (stereo not given) :: 96.1

# evaluate next
Q: Supply growth measured with PC-3 prostate for CCOC(=O)c1cc2c(n1Cc1cc(OC)cc(OC)c1)-c1oncc1CCC2 .
Ans: 33.2

---

test system: NCI-H23 lung; assay: NCI-60 one-dose screen, 48 h (100 = growth as untreated, 0 = no growth, -100 = all killed); conditions: 10 µM unless noted
The panel holds about 83,000 compounds, 20% with a hit somewhere; the sample as a whole holds those more often. Calls of active or inactive are those of the source. How the source made its calls: active means growth percent below 10; inactive means the rest.
# growth per record follows

Here's what some known entries look like.
O=C(Nc1ccc(Cl)cc1F)c1cc(F)ccc1O :: 1.46% (active)
CCOC(=O)c1cnc2ccc(Cl)cc2c1NCCCN(C)C :: 22% (inactive)
Cc1[nH]c2ccccc2c(=O)c1CC=C(Cl)Cl :: 75.4% (inactive)
COC(=O)[C@H](NC(=O)C1(C)CCC[C@]2(C)[C@H]3C[C@H]4C(C(C)C)=C[C@]3(CC[C@@H]12)[C@@H]1C(=O)CCC(=O)[C@@H]14)C(C)C (stereo not given in full) :: 103% (inactive)
Cc1ccc(Cn2c(N3CCC(C(=O)NCc4cccs4)CC3)nc3ccccc32)cc1 :: 85.2% (inactive)
COc1cc(/C=C/C(=O)c2c(C)nc3ccccc3c2/C=C/c2ccccc2)cc(OC)c1OC :: 10.9% (inactive)

# evaluate next
Q: Give the measured growth for CCOc1c(Br)cc(C2C(C(=O)OC)=CN(C)C=C2C(=O)OC)cc1OC
Ans: 98% (inactive)
